# pIC50 against Sodium-dependent noradrenaline transporter (Homo sapiens, UniProt P23975), merged from multiple literature sources
# Sequence (P23975 whole entry): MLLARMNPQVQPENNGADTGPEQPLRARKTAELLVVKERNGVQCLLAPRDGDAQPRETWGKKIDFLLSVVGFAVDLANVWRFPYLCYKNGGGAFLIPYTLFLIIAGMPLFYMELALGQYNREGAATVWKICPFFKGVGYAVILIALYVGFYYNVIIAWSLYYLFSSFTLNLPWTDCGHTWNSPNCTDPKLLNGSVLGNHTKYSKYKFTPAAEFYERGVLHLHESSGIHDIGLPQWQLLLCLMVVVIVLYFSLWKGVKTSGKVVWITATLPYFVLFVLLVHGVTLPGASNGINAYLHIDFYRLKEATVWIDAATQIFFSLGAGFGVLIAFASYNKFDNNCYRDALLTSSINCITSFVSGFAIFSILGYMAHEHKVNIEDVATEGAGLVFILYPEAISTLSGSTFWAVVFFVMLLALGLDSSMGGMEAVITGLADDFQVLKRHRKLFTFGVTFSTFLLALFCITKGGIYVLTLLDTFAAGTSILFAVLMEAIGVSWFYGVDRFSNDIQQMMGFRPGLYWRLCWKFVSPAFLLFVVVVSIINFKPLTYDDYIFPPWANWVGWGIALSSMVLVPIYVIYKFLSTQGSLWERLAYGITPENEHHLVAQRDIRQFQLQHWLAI
pIC50: −log10 of the molar value.
parameter.measured: pIC50

Some molecules with known pIC50 results, for comparison:
molecule: CC(C)C(=O)N(Cc1ccc(Cl)c(Cl)c1Cl)[C@H]1CCNC1
pIC50: 7.80

molecule: COc1ccc(-c2cc(C(=O)N[C@H]3CCCN(C)C3)nn2C)c(Cl)c1
pIC50: 4.35

molecule: NCC[C@@H](Oc1cccc2ccccc12)c1cccs1
pIC50: 6.73

(P) CNC[C@@H](O)[C@H](c1cccc(F)c1)n1cc(C)c2ccccc21
(Q) O=C1NCC(c2ccc(Cl)cc2)C1c1ccc(Cl)c(Cl)c1 (centres undefined)
Inquiry: Exercise: compare P and Q ; which one has the greater pIC50? Identify your selection by its label.
Reply text: P

(P) CNCC[C@H](c1ccccc1)n1c(=O)n(C)c2ccccc21
(Q) CCNC[C@H](O)[C@H](c1ccccc1)n1ccc2ccccc21 (racemic)
Inquiry: For the pair P and Q , which entry has the numerically smaller recorded pIC50? Identify your selection by its label.
Reply text: Q
(Q: 5.92, P: 6.33)

(A) CNC[C@@H](O)[C@H](c1cccc(F)c1)n1ccc2cccc(C)c21
(B) COc1cccc(C(CN(C)C)C2(O)CCCCC2)c1 (centres undefined)
Inquiry: Exercise: compare A and B ; which one has the greater pIC50? Identify your selection by its label.
Reply text: A

(I) CNC[C@H](O)[C@H](c1ccccc1)n1ccc2cc(Cl)ccc21 (racemic)
(II) CNC[C@@H](O)[C@H](c1ccc(Cl)cc1)n1ccc2ccccc21
(III) Cc1cccc(OC(CC2CNC2)c2ccc(Cl)c(F)c2)c1 (centres undefined)
(IV) COc1cccc(C(CN2CCNCC2)C2(O)CCCCC2)c1 (centres undefined)
(V) OC1(C(CN2CCNCC2)c2csc3ccccc23)CCCCC1 (centres undefined)
Inquiry: Rank order required: pIC50, descending. List each label, following the requested order.
Reply text: III, I, V, II, IV
(III: 7.83, I: 7.31, V: 6.59, II: 6.28, IV: 6.06)
